Target: T1, Human CD3eg linker (human)
T1 construct: Single-chain construct; also called recombinant human CD3
T1 chain: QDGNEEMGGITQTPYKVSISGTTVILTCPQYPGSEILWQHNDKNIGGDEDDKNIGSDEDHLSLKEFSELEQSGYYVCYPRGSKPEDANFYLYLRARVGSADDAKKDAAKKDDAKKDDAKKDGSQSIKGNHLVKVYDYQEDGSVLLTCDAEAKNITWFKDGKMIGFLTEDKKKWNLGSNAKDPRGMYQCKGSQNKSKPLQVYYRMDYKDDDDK
Test: SPR; fold vs parent H183/L072
Please assign rule not met whenever fold change of affinity is at or above 1 fold, and rule met whenever it is below.

API: query returns whether the binder falls strictly under 1 fold in fold change of affinity. Query: H183/L072 VL P56Q (antibody, name in Kabat numbering, V domains shown) VH: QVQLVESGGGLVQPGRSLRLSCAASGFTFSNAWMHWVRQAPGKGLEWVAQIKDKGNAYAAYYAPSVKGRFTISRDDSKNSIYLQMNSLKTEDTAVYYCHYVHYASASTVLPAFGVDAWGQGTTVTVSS VL: DIVMTQSPLSLPVTPGEPASISCQASQELVHMNRNTYLHWYQQKPGQAPRLLIYKVSNRFQGVPDRFSGSGSGTDFTLKISRVEAEDVGVYYCAQGTSVPFTFGQGTKLEIK rule not met

Source: patent US20210388087A1
